- target entity: MASP-2 CCP2-SP (Homo sapiens (Human))
- experiment description: MASP-2 co-crystallization, X-ray crystallography and structure analysis (H-bonds, van der Waals contacts)
- condition set: Table A7-1; between pharmacophore elements of the bound compound
readout: Pharmacophore torsion angle a(H4, O1, O2, H3)
# respond with the number and nothing more

Query block: Looking for the measured Pharmacophore torsion angle a(H4, O1, O2, H3) of CC(=O)Nc1ccc(CCNC(CCc2ccccc2)C(=O)NC(C)C(=O)NCc2ccc(C(=N)N)cc2)cc1.Cl.Cl (centres unmarked) [1345_2] , can you help?
Result block: 49.59

Query block: Similarly, `C[C@H](NC(=O)[C@@H](CCc1ccccc1)NCc1ccc(N2CCOCC2)cc1)C(=O)NCc1ccc(C(=N)N)cc1` ?
Result block: 105.58

====

Each entry below lists one item and its recorded Pharmacophore torsion angle a(O1, H4, O2, CA1) value.
- target entity: MASP-2 CCP2-SP (Homo sapiens (Human), UniProt O00187)
- Sequence (O00187 445-686): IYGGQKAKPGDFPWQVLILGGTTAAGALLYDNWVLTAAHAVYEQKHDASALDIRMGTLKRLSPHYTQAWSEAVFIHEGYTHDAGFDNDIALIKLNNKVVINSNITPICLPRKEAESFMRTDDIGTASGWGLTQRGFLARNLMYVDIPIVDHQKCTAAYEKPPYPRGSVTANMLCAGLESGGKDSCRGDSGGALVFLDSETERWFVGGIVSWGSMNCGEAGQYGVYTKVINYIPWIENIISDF
- Sequence (O00187 364-432 partner): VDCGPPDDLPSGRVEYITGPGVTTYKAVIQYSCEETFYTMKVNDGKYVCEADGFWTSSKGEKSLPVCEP
- experiment description: MASP-2 co-crystallization, X-ray crystallography and structure analysis (H-bonds, van der Waals contacts)
- condition set: Table A7-1; between pharmacophore elements of the bound compound
Where a name gives a salt, the structure may show the parent alone.
// print number alone

These recorded examples may help you get a feel for the data.
[[record]]
compound = "Cc1nc(N)ccc1CNC(=O)[C@H](C)NC(=O)[C@H]1C[C@H](Cc2cccc(Cl)c2)CN1.Cl.Cl [1328_4]"
experimental_value = "−91.48"

[[record]]
compound = "C[C@H](NC(=O)[C@H]1C[C@@H](c2ccccc2)CCN1)C(=O)NCc1cc(Cl)ccc1O.Cl [1078_1]"
experimental_value = "−60.12"

[[record]]
compound = "Cc1nc(N)ccc1CNC(=O)[C@H](C)NC(=O)[C@H]1C[C@@H](c2ccccc2)CCN1 [compound 1253, Dihydrochloride]"
experimental_value = "−82.09"


# ---- query compound ----
Query block: Data request, read-out Pharmacophore torsion angle a(O1, H4, O2, CA1), for `C[C@H](NC(=O)[C@H]1C[C@H](Cc2ccccc2)CN1)C(=O)NCc1cnc2[nH]cc(Cl)c2c1`
Result block: −93.67

====

- target entity: MASP-2 CCP2-SP (Homo sapiens (Human), UniProt O00187)
- experiment description: MASP-2 co-crystallization, X-ray crystallography and structure analysis (H-bonds, van der Waals contacts)
- Set-up: unit not given beside the values
- condition set: Table A5-1 pharmacophore: distance between elements, S2/S1 region
Structures can show the parent of a compound that is named as a salt.
Threshold check on d(H4,O1): at or above 4 gives 1 (yes), strictly below gives 0 (no).

Query block: Is it the case that Cc1nc(N)ccc1CNC(=O)[C@H](C)NC(=O)[C@H]1C[C@H](Cc2cccc(Cl)c2)CN1.Cl.Cl [1328_2] has d(H4,O1) reaching or exceeding 4?
Result block: 1 (yes)

Query block: CC(NC(=O)C1CC(Cc2ccccc2)CN1)C(=O)NCc1cnc2c(c1)c(Cl)cn2C.Cl.Cl (mixture of isomers) [1450_A] ?
Result block: 0 (no)

Query block: And the next one, C[C@H](NC(=O)[C@H]1C[C@@H](c2ccccc2)CCN1)C(=O)NCc1cc(Cl)ccc1O.Cl [1078_11] ?
Result block: 0 (no)

Query block: Thanks! And Cc1nc(N)ccc1CNC(=O)[C@H](C)NC(=O)[C@H]1C[C@H](Cc2cc(Cl)cc(Cl)c2)CN1 [compound 1435, Dihydrochloride] ?
Result block: 1 (yes)

Query block: Another compound: `C[C@H](NC(=O)[C@H]1C[C@@H](c2ccccc2)CCN1)C(=O)NCc1cnc2[nH]cc(Cl)c2c1`
Result block: 0 (no)

Query block: Please do the same for Cc1nc(N)ccc1CNC(=O)[C@H](C)NC(=O)[C@H]1C[C@@H](c2cccc3ccccc23)CCN1.Cl.Cl [1297_4] as well.
Result block: 1 (yes)

====

- target entity: MASP-2 CCP2-SP (Homo sapiens (Human), UniProt O00187)
- experiment description: MASP-2 co-crystallization, X-ray crystallography and structure analysis (H-bonds, van der Waals contacts);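 on Ligand-pharmacophore element distance, pharmacophore element CA4: distance from averaged pharmacophore element to bound ligand; missing value means element absent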
- condition set: Table A4-1; element CA4
Where a name gives a salt, the structure may show the parent alone.
readout: Ligand-pharmacophore element distance, pharmacophore element CA4
No unit in the answer, only the number.

[[record]]
compound = "C[C@H](NC(=O)[C@H]1C[C@@H](c2ccccc2)CCN1)C(=O)NCc1cc(Cl)ccc1O.Cl [1078_11]"
experimental_value = 0


Query block: Checklist item: Ligand-pharmacophore element distance, pharmacophore element CA4 tested on MASP-2 CCP2-SP (Homo sapiens (Human), UniProt O00187), entry C[C@H](NC(=O)[C@H]1C[C@H](Cc2ccccc2)CN1)C(=O)NCc1ccc(C(=N)N)cc1.Cl.Cl [1306_1] , value?
Result block: 0

Query block: Moving on to the next compound: CC(NC(=O)C1CC(Cc2ccccc2)CN1)C(=O)NCc1cnc2c(c1)c(Cl)cn2C.Cl.Cl (mixture of isomers) [1450_A]
Result block: 0

Query block: Same again, this time with Cc1nc(N)ccc1CNC(=O)[C@H](C)NC(=O)[C@H]1C[C@H](Cc2cccc(Cl)c2)CN1.Cl.Cl [1328_1]
Result block: 0

Query block: Next record, please: Cc1nc(N)ccc1CNC(=O)[C@H](C)NC(=O)[C@H]1C[C@@H](c2cccc3ccccc23)CCN1.Cl.Cl [1297_4]
Result block: 0.98

Query block: Similarly, `Cc1nc(N)ccc1CNC(=O)[C@H](C)NC(=O)[C@H]1C[C@H](Cc2ccccc2)CN1` ?
Result block: 0

Query block: Try `Cc1nc(N)ccc1CNC(=O)[C@H](C)NC(=O)[C@H]1C[C@H](Cc2ccc(-c3ccccc3)cc2)CN1` next.
Result block: 3.3

Query block: Quick one: C[C@H](NC(=O)[C@H]1C[C@@H](c2ccccc2)CCN1)C(=O)NCc1cc(Cl)ccc1O.Cl [1078_3]
Result block: 0

Query block: Similarly, `Cc1cc(Cl)cc(CNC(=O)[C@H](C)NC(=O)[C@H]2C[C@H](Cc3ccccc3)CN2)c1O` ?
Result block: 0

Query block: Again, but for Cc1nc(N)ccc1CNC(=O)[C@H](C)NC(=O)[C@H]1C[C@@H](c2cccc3ccccc23)CCN1.Cl.Cl [1297_5]
Result block: 1.22

Query block: Field entry: CC(=O)Nc1ccc(CCN[C@H](CCc2ccccc2)C(=O)N[C@@H](C)C(=O)NCc2ccc(N)nc2C)cc1 [compound 1368, Dihydrochloride]
Result block: 0

Query block: What do you get for C[C@H](NC(=O)[C@H](N)CCc1ccccc1)C(=O)NCc1ccc(N)nc1.Cl.Cl [1007_2] ?
Result block: 0

Query block: Now the compound C[C@H](NC(=O)[C@H]1Cc2c([nH]c3ccccc23)CN1)C(=O)NCc1ccc(C(=N)N)cc1.Cl.Cl [1097_1]
Result block: 0

====

- target entity: MASP-2 CCP2-SP (Homo sapiens (Human))
- experiment description: MASP-2 co-crystallization, X-ray crystallography and structure analysis (H-bonds, van der Waals contacts)
- condition set: Table A8-6; nearest protein atom in cell to the left
- Excerpt: This example illustrates the preparation of recombinant MASP-2 protein, based on UniProt O00187, human mannan-binding lectin serine protease 2. Expression constructs for human MASP-2 CCP2-SP and CCP2-SP-6HIS were generated for recombinant expression in E. coli cells. […]
readout: Pharmacophore protein distance to PHE_529
Reply: number alone, nothing else.

[[record]]
molecule = "O=c1oc(-c2ccccc2[N+](=O)[O-])nc2ccccc12"
experimental_value = 2.77

[[record]]
molecule = "C[C@H](NC(=O)[C@H](N)CCc1cc(Cl)cc(Cl)c1)C(=O)NCc1ccc(C(=N)N)cc1"
experimental_value = 3.01

[[record]]
molecule = "C[C@H](NC(=O)[C@H]1C[C@@H](c2ccccc2)CN1)C(=O)NCc1ccc2c(N)nccc2c1.Cl.Cl [1089_B]"
experimental_value = 2.81


Query block: I am curious: what Pharmacophore protein distance to PHE_529 value has been reported for C[C@H](NC(=O)[C@H](N)CCCc1ccccc1)C(=O)NCc1ccc(C(=N)N)cc1.Cl.Cl [1042_2] ?
Result block: 3.09

====

- target entity: MASP-2 CCP2-SP (Homo sapiens (Human), UniProt O00187)
- experiment description: MASP-2 co-crystallization, X-ray crystallography and structure analysis (H-bonds, van der Waals contacts)
- condition set: Table A6-1 pharmacophore angle
readout: a(CA1, O1, O2)
Output spec: single numeric token, no unit.

[[record]]
molecule = "Cc1nc(N)ccc1CNC(=O)[C@H](C)NC(=O)[C@H]1C[C@H](Cc2ccccc2)CN1"
readout = "a(CA1, O1, O2)"
experimental_value = 105.87


Next molecule, please.
Query block: Bench note: what a(CA1, O1, O2) did `Cc1cc(Cl)cc(CNC(=O)[C@H](C)NC(=O)[C@H]2C[C@H](Cc3ccccc3)CN2)c1O` show?
Result block: 109.57
